Origin of the recorded values: BindingDB's records for doi:10.1021/acs.jmedchem.7b00306

# TARGET_UNDER_TEST: Bromodomain-containing protein 1 (Homo sapiens, UniProt O95696)
# Sequence (O95696 whole entry): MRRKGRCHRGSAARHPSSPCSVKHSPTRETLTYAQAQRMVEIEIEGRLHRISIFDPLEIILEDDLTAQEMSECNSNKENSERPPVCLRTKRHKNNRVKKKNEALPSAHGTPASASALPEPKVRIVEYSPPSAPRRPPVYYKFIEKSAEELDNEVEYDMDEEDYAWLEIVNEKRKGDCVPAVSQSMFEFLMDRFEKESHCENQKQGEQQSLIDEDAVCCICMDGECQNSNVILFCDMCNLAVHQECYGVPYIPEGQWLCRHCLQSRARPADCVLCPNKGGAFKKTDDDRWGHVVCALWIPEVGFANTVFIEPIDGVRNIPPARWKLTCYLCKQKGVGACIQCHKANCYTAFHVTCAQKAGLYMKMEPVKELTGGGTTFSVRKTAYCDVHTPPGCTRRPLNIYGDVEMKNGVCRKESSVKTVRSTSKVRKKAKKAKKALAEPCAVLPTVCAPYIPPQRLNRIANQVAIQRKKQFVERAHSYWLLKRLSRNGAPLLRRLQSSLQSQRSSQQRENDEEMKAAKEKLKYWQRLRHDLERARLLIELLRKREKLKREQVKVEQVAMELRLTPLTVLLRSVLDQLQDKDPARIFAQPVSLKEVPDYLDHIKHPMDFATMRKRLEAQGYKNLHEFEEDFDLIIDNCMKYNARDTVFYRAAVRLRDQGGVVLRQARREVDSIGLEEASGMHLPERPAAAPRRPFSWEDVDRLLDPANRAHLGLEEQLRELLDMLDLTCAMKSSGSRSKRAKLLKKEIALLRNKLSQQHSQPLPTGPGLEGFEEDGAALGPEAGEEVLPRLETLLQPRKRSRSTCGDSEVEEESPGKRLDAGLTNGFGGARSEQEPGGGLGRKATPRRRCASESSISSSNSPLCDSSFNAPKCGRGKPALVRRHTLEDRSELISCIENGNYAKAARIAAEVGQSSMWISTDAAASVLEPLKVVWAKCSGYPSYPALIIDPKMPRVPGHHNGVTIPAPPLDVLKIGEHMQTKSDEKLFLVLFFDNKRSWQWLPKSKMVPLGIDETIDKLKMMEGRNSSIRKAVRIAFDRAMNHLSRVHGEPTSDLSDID
# ASSAY_INFO: Alphascreen assay. Binding to BRD1A (domain start/stop: E556-A688) by alphascreen assay
OBSERVATION_TYPE: IC50 (nM)
Express your answer in nM, writing the number without its unit.

Give recorded IC50. COc1cc2c(cc1NS(=O)(=O)c1ccc(Br)cc1C)n(C)c(=O)n2C
1680
